# test.description: Cmax in NCR nude mouse at 100 mg/kg, po
# Assay type: ADME, organism-based
# Design: dose 100 mg/kg, route oral
# measurement.setup: in vivo
recorded.endpoint: Cmax (µM)
# output: bare number, implied unit µM

## Input What value of Cmax has been reported for the following compound? O=C(NCc1ccc(S(=O)(=O)c2cccc(C(F)(F)F)c2)cc1)c1cnc2[nH]ncc2c1
## Output 53

====

# test.description: Ratio of drug level in retina to plasma of Sprague-Dawley rat at 30 mg/kg, po qd for 2 days measured 1 hr after last dose in presence of nicotinic acid
recorded.endpoint: Kp at 1 h
Answer with a bare number; do not write a unit.

## Input Record request: Kp at 1 h value, item O=C(NCc1ccc(S(=O)(=O)c2cc(F)cc(F)c2)cc1)c1ccc2nccn2c1
## Output 0.32
